test system: pigweed; experiment: Test C preemergence; format: in vivo, Amaranthus retroflexus; conditions: 16 g ai/ha, preemergence; scale 0 to 100 (0 no effect, 100 complete control)
As shown below, each of these compounds has a reported Pigweed plant response rating value.
Keep the answer to the number alone.

Below are worked cases with known answers.
smiles input	measured property	reported value
FCc1cn(-c2c(F)cccc2Oc2ncc(Cl)cn2)nn1	Pigweed plant response rating	85
CCOc1cn(-c2c(Br)cccc2Oc2ncc(Cl)cn2)nn1	Pigweed plant response rating	85

Per the record, N#Cc1cnn(-c2c(CF)cccc2Oc2ncc(F)cn2)c1 has Pigweed plant response rating of 100

Per the record, FCc1cccc(Oc2ncc(Cl)cn2)c1-n1cc(Br)cn1 has Pigweed plant response rating of 85

Per the record, FCc1cccc(Oc2ncc(Cl)cn2)c1-n1cc(Cl)cn1 has Pigweed plant response rating of 85

Per the record, Fc1cnc(Oc2cccc(C(F)F)c2-n2cc(Br)cn2)nc1 has Pigweed plant response rating of 100

Per the record, Cc1cnc(Oc2cccc(C#N)c2-n2cc(I)cn2)nc1 has Pigweed plant response rating of 0

Per the record, N#Cc1cnn(-c2c(C#N)cccc2Oc2ncc(F)cn2)c1 has Pigweed plant response rating of 75

Per the record, Fc1cccc(Oc2ncc(Cl)cn2)c1-n1cc(OCC(F)(F)F)cn1 has Pigweed plant response rating of 100

Per the record, CCCOc1cnn(-c2c(C#N)cccc2Oc2ncc(Cl)cn2)c1 has Pigweed plant response rating of 55
